assay_comment: recombinant UMI read abundance after kanamycin selection (control-corrected) (log10(CPM+1)); higher = more efficient recombination; extreme values may be limits of the assay; sequences stand for … in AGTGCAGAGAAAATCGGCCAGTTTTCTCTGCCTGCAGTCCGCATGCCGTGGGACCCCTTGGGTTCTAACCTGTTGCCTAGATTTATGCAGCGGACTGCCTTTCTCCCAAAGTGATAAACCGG…AGGTTGGTTTCACT; site = the 11-nt donor;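 also: IS621 bridge recombinase in Escherichia coli cells against a fixed T5 target plasmid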
If the reported recombinant UMI read abundance (log10) equals or exceeds 0.02, assign true. If not, assign false.

>>> group_label("ATTGCGGCATGGACCGGTTTTCCCGGTAATCCGTATTTGCT (site TTTGCGGCTAG)")
"true"
>>> group_label("GTAATCTCATGGACCGGTTTTCCCGGTAATCCGTATTTGAC (site GTAATCTCTGT)")
"true"
>>> group_label("TAAGCGCCATGGACCGGTTTTCCCGGTAATCCGTATTTGTG (site AAAGCGCCTCA)")
"true"
>>> group_label("CTGACATCATGGACCGGTTTTCCCGGTAATCCGTATTTGCT (site CGGACATCTAG)")
"false"
>>> group_label("TTTGCGGCATGGACCGGTTTTCCCGGTAATCCGTATTTGAT (site TTTGCGGCTAG)")
"false"
>>> group_label("AGGACGACATGGACCGGTTTTCCCGGTAATCCGTATTTGCA (site AGGAAGACTTG)")
"true"
>>> group_label("TCCGGAACATGGACCGGTTTTCCCGGTAATCCGTATTTGCT (site TCCGGAACTAG)")
"false"
>>> group_label("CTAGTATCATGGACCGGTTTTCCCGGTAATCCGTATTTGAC (site GTAGTATCTGC)")
"false"
>>> group_label("CTGGAATCATGGACCGGTTTTCCCGGTAATCCGTATTTGCA (site CTGGAACCTTG)")
"false"
